Origin of values: patent US20220273659A1

Assay System: CDK4 (Homo sapiens)
Sequence (P11802 whole entry): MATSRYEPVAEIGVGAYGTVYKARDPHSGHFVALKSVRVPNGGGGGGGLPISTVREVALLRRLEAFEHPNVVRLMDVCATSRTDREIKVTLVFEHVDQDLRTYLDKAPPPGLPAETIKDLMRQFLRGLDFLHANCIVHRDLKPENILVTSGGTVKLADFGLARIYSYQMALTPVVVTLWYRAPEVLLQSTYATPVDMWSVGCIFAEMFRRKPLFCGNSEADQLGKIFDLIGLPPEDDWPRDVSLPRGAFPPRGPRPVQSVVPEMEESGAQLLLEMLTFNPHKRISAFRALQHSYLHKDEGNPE
Sequence (P24385 whole entry partner): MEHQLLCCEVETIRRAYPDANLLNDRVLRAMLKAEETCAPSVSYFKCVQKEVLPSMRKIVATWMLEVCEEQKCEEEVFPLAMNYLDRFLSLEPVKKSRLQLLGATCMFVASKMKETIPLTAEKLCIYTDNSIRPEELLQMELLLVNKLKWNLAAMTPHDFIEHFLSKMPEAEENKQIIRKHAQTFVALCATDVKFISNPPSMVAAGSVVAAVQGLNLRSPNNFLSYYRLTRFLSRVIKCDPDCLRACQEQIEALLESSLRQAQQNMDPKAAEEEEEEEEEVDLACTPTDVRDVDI
Procedure Summary: In vitro kinase inhibition IC50, luminescence (ADP Glo), retinoblastoma substrate
Applied Conditions: read-out: CDK4/D1 IC50
Measure Name: pIC50
Give only the number. pIC50 is defined as minus log10 of concentration in molar units.

For reference, reported pIC50 for CN1CCc2cc(Nc3ncc4cc(C#N)c(=O)n(C5CCCC5)c4n3)ccc2C1 stands at 8.82

pIC50 in this record for N#Cc1cc2cnc(Nc3cccc(S(N)(=O)=O)c3)nc2n(C2CCCC2)c1=O : 7.92

Just so you know, measured pIC50 for CS(=O)(=O)N1CCC(Nc2cc3c(cn2)cc(C#N)c(=O)n3C2CCCC2)CC1 came out at 8.52

get_value(item= N#Cc1cc2cnc(NC3CCN(S(=O)(=O)CCCCCCO)CC3)nc2n(C2CCCC2)c1=O , readout=pIC50) returns 8.52

So for CN(C)CCN1Cc2cc(Nc3ncc4cc(C#N)c(=O)n(C5CCCC5)c4n3)ccc2C(C)(C)C1 , the logged pIC50 turned out to be 8.02

Data point: Cn1ccc(S(=O)(=O)N2CCC(Nc3ncc4cc(C(F)F)c(=O)n([C@H]5C[C@@H]6CC[C@H]5C6)c4n3)CC2)n1 ; pIC50 = 7.89

Just so you know, measured pIC50 for N#Cc1cc2cnc(Nc3ccc4c(c3)CN(CCN)CC4)nc2n(C2CCCC2)c1=O came out at 7.77
